Readings of binding capacity (%) for the listed binders
Target: T1, PKC-α (purified isoform) (Homo sapiens (Human), UniProt P17252 2-672)
T1 construct: also called PKC-alpha; PKCalpha
Experiment: competitive ELISA on purified PKC-α vs anti-PKC-α Ab; PRE 200 µM
assay-endpoint: binding capacity (%)

binder="Ac-RDAQNLIGISI-NH2 (Synthetic peptide; also called peptide PRE 11) [PRE 11]" recorded_number=13.3
binder="Ac-KDAQNLI-NH2 (Synthetic peptide; also called peptide PRE 12; Ac-KDAQNLI-NH2) [PRE 12]" recorded_number=0
binder="Ac-KDAQNLIGISI-NH2 (Synthetic peptide; also called peptide PRE 4) [PRE 4]" recorded_number=22.8
binder="Ac-ISIGILQNADK-NH2 (Synthetic peptide (retro form of PRE 4); also called peptide PRE 7) [PRE 7]" recorded_number=6.59
binder="Ac-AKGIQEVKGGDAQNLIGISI-NH2 (Synthetic peptide; also called peptide PRE 3) [PRE 3]" recorded_number=22.6
